Listed here: items and their measured pIC50.
Molecular target: Elastase from human neutrophils (Homo sapiens, UniProt P08246)
Sequence (P08246 30-267): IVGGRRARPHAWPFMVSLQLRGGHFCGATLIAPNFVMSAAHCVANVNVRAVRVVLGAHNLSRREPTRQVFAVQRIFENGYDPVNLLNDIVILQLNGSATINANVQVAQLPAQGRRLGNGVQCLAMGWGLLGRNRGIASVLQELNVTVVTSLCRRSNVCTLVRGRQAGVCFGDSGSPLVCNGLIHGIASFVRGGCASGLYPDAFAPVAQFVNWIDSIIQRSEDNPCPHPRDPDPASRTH
Test: Enzymatic assay, elastase
Settings: Elastase IC50
pIC50: −log10 of the molar value. Where a SMILES comes first, the peptide text is derived from it.
Readout name: pIC50

Compound	Bound operator	Recorded measurement
CCCCCCCC[C@@H]1NC(=O)[C@H](CO)NC(=O)[C@H](C)NC(=O)[C@H]([C@@H](C)O)NC(=O)[C@@H]2CSSC[C@H](NC(=O)[C@H](CCC(N)=O)NC(=O)[C@@H]3CCCN3C(=O)[C@@H]3CCCN3C1=O)C(=O)N[C@@H](CCC(N)=O)C(=O)N1CCC[C@@H]1C(=O)N1CCC[C@H]1C(=O)N[C@@H](CCCC)C(=O)N2 [Ex. 129] (HELM PEPTIDE1{[Nle].C.T.A.S.[CCCCCCCC[C@H](N[*:1])C(=O)[*:2]].P.P.Q.C.Q.[dP].P}$PEPTIDE1,PEPTIDE1,2:R3-10:R3|PEPTIDE1,PEPTIDE1,1:R1-13:R2$$$V2.0)	=	7.52
CCCCCC[C@@H]1NC(=O)[C@H](CO)NC(=O)[C@H](C)NC(=O)[C@H]([C@@H](C)O)NC(=O)[C@@H]2CSSC[C@H](NC(=O)[C@H](CCC(N)=O)NC(=O)[C@@H]3CCCN3C(=O)[C@@H]3CCCN3C1=O)C(=O)N[C@@H](Cc1ccc(O)cc1)C(=O)N1CCC[C@@H]1C(=O)N1CCC[C@H]1C(=O)N[C@@H](CCCC)C(=O)N2 [Ex. 80] (HELM PEPTIDE1{[Nle].C.T.A.S.[CCCCCC[C@H](N[*:1])C(=O)[*:2]].P.P.Q.C.Y.[dP].P}$PEPTIDE1,PEPTIDE1,2:R3-10:R3|PEPTIDE1,PEPTIDE1,1:R1-13:R2$$$V2.0)	=	7.46
CC[C@H](C)[C@@H]1NC(=O)[C@@H]2CCCN2C(=O)[C@@H]2CCCN2C(=O)[C@H](CC(=O)O)NC(=O)[C@H](CO)NC(=O)[C@H](CCCCN)NC(=O)[C@H]([C@@H](C)O)NC(=O)[C@@H]2CSSC[C@H](NC1=O)C(=O)N[C@@H](CO)C(=O)N1CCC[C@@H]1C(=O)N[C@@H](CCC(=O)O)C(=O)N[C@@H](Cc1ccccc1)C(=O)N2 [Ex. 64] (HELM PEPTIDE1{F.C.T.K.S.D.P.P.I.C.S.[dP].E}$PEPTIDE1,PEPTIDE1,2:R3-10:R3|PEPTIDE1,PEPTIDE1,1:R1-13:R2$$$V2.0)	<	4.00
CCCC[C@@H]1NC(=O)[C@H]([C@@H](C)O)NC(=O)[C@@H]2CSSC[C@H](NC(=O)[C@H]([C@@H](C)CC)NC(=O)[C@@H]3CCCN3C(=O)[C@@H]3CCCN3C(=O)[C@H](CC(=O)O)NC(=O)[C@H](CO)NC1=O)C(=O)N[C@@H](CCCNC(=N)N)C(=O)N1CCC[C@@H]1C(=O)N1CCC[C@H]1C(=O)N[C@@H]([C@@H](C)CC)C(=O)N2 [Ex. 22] (HELM PEPTIDE1{I.C.T.[Nle].S.D.P.P.I.C.R.[dP].P}$PEPTIDE1,PEPTIDE1,2:R3-10:R3|PEPTIDE1,PEPTIDE1,1:R1-13:R2$$$V2.0)	<	4.00
